TESTED ON: porcine pancreatic elastase (PPE) (Sus scrofa, UniProt P00772)
Construct: from tissue; host or cells: porcine pancreas (from the name)
Sequence (P00772 27-266): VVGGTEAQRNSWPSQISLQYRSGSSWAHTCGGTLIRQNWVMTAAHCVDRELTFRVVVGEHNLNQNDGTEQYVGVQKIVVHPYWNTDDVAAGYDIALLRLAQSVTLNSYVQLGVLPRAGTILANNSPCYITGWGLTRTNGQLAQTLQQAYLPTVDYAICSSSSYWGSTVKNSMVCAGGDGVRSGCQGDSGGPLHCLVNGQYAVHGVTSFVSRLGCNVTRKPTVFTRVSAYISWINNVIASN
PROTOCOL DETAILS: Inactivation of porcine pancreatic elastase (PPE)
Assay type: biochemical
SETUP CONDITIONS: Table XI; pH 7.5, 25° C; [I] 6.3-600 μM, per line; read-out: kobs/[I]
PROPERTY MEASURED: kinact/KI (M⁻¹ s⁻¹)

>>> result_value("CCOC(=O)Nc1ccc2c(Cl)c(OC)oc(=O)c2c1")
2000
>>> result_value("COc1oc(=O)c2cc(NC(=O)NCC(C)C)ccc2c1Cl")
3200
>>> result_value("COC(=O)c1ccccc1C(=O)Nc1ccc2c(Cl)c(OC)oc(=O)c2c1")
7100
>>> result_value("COC(=O)CCC(=O)Nc1ccc2c(Cl)c(OC)oc(=O)c2c1")
2200
>>> result_value("COc1oc(=O)c2cc(NC(=O)OCC3c4ccccc4-c4ccccc43)ccc2c1Cl")
20
>>> result_value("COC(=O)CCCC(=O)Nc1ccc2c(Cl)c(OC)oc(=O)c2c1")
2800
>>> result_value("CCOc1oc(=O)c2cc(NC(=S)Nc3ccccc3)ccc2c1Cl")
12000
>>> result_value("COC(=O)Nc1cccc(C(=O)Nc2ccc3c(Cl)c(OC)oc(=O)c3c2)c1")
2500
>>> result_value("COc1oc(=O)c2cc(NC(=O)C(NS(=O)(=O)c3ccc(C)cc3)c3ccccc3)ccc2c1Cl (stereo not shown)")
1500
>>> result_value("COc1oc(=O)c2cc(NC(N)=O)ccc2c1Cl")
2100

---

TESTED ON: porcine pancreatic kallikrein (Sus scrofa)
Construct: from tissue; host or cells: porcine pancreas (from the name)
Sequence (P00752 8-246): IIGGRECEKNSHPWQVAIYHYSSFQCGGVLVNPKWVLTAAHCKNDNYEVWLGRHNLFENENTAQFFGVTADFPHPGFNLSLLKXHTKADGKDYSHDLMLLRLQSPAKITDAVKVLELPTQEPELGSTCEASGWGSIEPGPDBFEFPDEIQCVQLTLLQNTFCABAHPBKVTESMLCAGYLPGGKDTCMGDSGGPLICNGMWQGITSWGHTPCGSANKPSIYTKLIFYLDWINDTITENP
PROTOCOL DETAILS: Inactivation rate of porcine pancreatic kallikrein
Assay type: biochemical
SETUP CONDITIONS: Table I; pH 7.5, 25° C; [I] 0.4 to 300 μM; read-out: kobs/[I]
PROPERTY MEASURED: kinact/KI

>>> result_value("N=C(N)Nc1ccc2cc(OCCc3ccccc3)oc(=O)c2c1")
"16000 M⁻¹ s⁻¹"
>>> result_value("N=C(N)SCCCOc1oc(=O)c2ccccc2c1Cl")
"19000 M⁻¹ s⁻¹"
>>> result_value("CCOc1cc2ccc(NC(=N)N)cc2c(=O)o1")
"16000 M⁻¹ s⁻¹"
>>> result_value("N=C(N)SCCOc1oc(=O)c2ccccc2c1Cl")
"12000 M⁻¹ s⁻¹"
>>> result_value("COc1cc2ccc(NC(=N)N)cc2c(=O)o1")
"1900 M⁻¹ s⁻¹"
>>> result_value("NCCCOc1cc2ccccc2c(=O)o1")
"5 M⁻¹ s⁻¹"
>>> result_value("NCCCOc1oc(=O)c2ccccc2c1Cl")
"860 M⁻¹ s⁻¹"

---

TESTED ON: cathepsin G (Homo sapiens, UniProt P08311)
Construct: from tissue; host or cells: human leukocytes
Sequence (P08311 21-255): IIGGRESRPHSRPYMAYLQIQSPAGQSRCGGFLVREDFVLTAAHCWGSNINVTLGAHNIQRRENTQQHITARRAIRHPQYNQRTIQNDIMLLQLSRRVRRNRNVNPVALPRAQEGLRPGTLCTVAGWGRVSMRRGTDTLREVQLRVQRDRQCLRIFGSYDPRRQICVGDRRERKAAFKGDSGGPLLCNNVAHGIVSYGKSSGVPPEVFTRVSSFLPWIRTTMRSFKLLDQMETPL
PROTOCOL DETAILS: Inactivation of cathepsin G
Format: biochemical
SETUP CONDITIONS: Table IV; pH 7.5, 25° C; [I] 0.002 to 0.35 mM; read-out: kobs/[I]
Where a name gives a salt, the structure may show the parent alone.
Tick y if kinact/KI is 100 M⁻¹ s⁻¹ or greater. Tick n if kinact/KI is less than 100 M⁻¹ s⁻¹.

>>> class("NCCCOc1cc2ccccc2c(=O)o1")
"n"
>>> class("N=C(N)Nc1ccc2c(Cl)c(OCCc3ccccc3)oc(=O)c2c1")
"y"
>>> class("COc1oc(=O)c2cc(NC(=O)CN)ccc2c1Cl")
"n"
>>> class("CCOc1oc(=O)c2cc(NC(=N)N)ccc2c1Cl")
"y"
>>> class("NCCCOc1oc(=O)c2ccccc2c1Cl")
"y"
>>> class("N=C(N)SCCCOc1oc(=O)c2cc(N)ccc2c1Cl")
"n"
>>> class("COc1oc(=O)c2cc(NC(=O)[C@H](C)N)ccc2c1Cl [Hydrochloride]")
"n"
>>> class("COc1oc(=O)c2cc(NC(=N)N)ccc2c1Cl")
"y"
>>> class("N=C(N)SCCOc1oc(=O)c2ccccc2c1Cl")
"y"
>>> class("N=C(N)SCCCOc1oc(=O)c2ccccc2c1Cl")
"n"
